Tested on: MCF7 CARM1 KO cells
Assay: Quantitative MS of ADMA-containing peptides in MCF7 CARM1 KO cells expressing CARM1 28-608 or CARM1 140-608, and in CARM1 KO
Format: cell-based, human
Conditions: KO vs WT, mean of 3 replicates, log2
Measurement Name: KO/WT

Can you look up the measured KO/WT of QLPNAGPGAPPALGFSrFPAGAR for me? -2.458

More entries:
If you can, please state the reported KO/WT value of TNRPGISTTDrGFPrArYR . -0.1094

Note, next up: WrYNKPLPPTPDLPQPHLPPISAPGSSR -1.565

Same read-out for SVGQGYSVGQSMrLGLGGNAPVSIPQQSQSVK ? -2.576

What about this substance? QLPNAGPGAPPALGFSrFPAGArYAGAGGLER -4.1849

Try this substance too: MRPQPYGGTNPYSQQQGPPSGPQQGHGYPGQPYGSQTPQrYPMTMQGR -1.781

Data credit: paper PMC5458078
